# RUN_DESCRIPTION: physchem
# CONDITION_CONTEXT: pH 7.4 buffer
For each record, write down the corresponding solubility thermodynamic.

Here's what some known entries look like.
O=C(Nc1ccccc1)c1ccc(OCCCN2CCCC2)cc1OCc1cccnc1 = 398 µM
NC1(c2ccc(-c3nc4ccccc4cc3-c3ccccc3)cc2)CCC1 = 288 µM
Cc1cc(CNc2ncc(Br)c(Nc3cc(CCc4ccccc4)[nH]n3)n2)on1 = 1.7 µM
O=S(=O)(NCc1cc(-c2ccccc2Cl)no1)c1ccc(Cl)cc1 = 3.1 µM
COC1=C(c2ccccc2)C(=O)c2ccccc2C1=O = 8.1 µM

Consider the following items and state reported solubility thermodynamic for each.
1. COC[C@H](C)Oc1cc(Oc2cccc(F)c2)cc(C(=O)Nc2ccc(C(=O)O)cn2)c1
2. CCCSc1nc(N2CCOCC2)ccc1C(=O)N[C@H]1C2CC3CC1C[C@](O)(C3)C2
3. C=CCN(C(=O)NCc1ccc(OC)cc1)C1CCN(CCC(c2ccccc2)c2ccccc2)CC1
4. Cc1ccc(S(=O)(=O)Nc2c(C(=O)NC3CCCCC3)cnn2-c2ccccc2)cc1

1: 1380 µM; 2: 479 µM; 3: 53.7 µM; 4: 490 µM

Would you mind telling me what solubility thermodynamic value was observed for CCCc1c(C(=O)Nc2ccc(F)cc2C)cnn1-c1ccccc1 ? 3.1 µM

---

# RUN_DESCRIPTION: physchem
# CONDITION_CONTEXT: octan-1-ol/water, pH 7.4, LogD7.4
For each record, write down the corresponding logD.
One number for each entry.

Here's what some known entries look like.
O=C(Nc1ccc(Cl)c(Cl)c1)N1CCN(C[C@@H]2CCCN(C3CC3)C2)CC1 = 3.57
O=C1COC2(CCN(S(=O)(=O)c3ccc(-c4ccc5cnccc5c4)cc3)CC2)CN1C1CC1 = 3.32
O=S1NC(Cc2ccc3ccccc3c2)=NO1 (stereo unspecified) = 1.85
CC(C)Cn1c(=O)n(C)c(=O)c2c(C(=O)N3CC[C@@H](O)C3)c(Oc3cccc4ccccc34)sc21 = 2.87

Consider the following items and state reported logD for each.
1. O=C(OCC(O)CO)c1ccccc1Nc1ccnc2cc(Cl)ccc12 (stereo unspecified)
2. CC1CC(=O)Nc2ccccc2N1 (stereo unspecified)
3. CN(CCOc1ccc(CC2SC(=O)NC2=O)cc1)c1ccccn1 (stereo unspecified)
4. O=c1c2ccccc2nc2ccccn12
5. Clc1cccc(Cl)c1-c1nnc2cccc(Cl)n12
6. COc1ccc(C)c(NC(=O)CC23CC4CC(CC(C4)C2)C3)c1
7. N[C@H](CNC(=O)c1cc2c(-c3ccccc3Cc3ccccc3)cccc2[nH]1)C(=O)O

[3.5, 0.56, 2.5, 2.1, 2.66, 3.96, 3.25]

---

# RUN_DESCRIPTION: physchem
# CONDITION_CONTEXT: octan-1-ol/water, pH 7.4, LogD7.4
QUANTITY: logD
Answers are plain numbers.

O=c1oc(-c2ccccc2)cc2ccccc12 = 3.84
CONC(=O)c1cnc(N2CCC(NC(=O)c3[nH]c(C)c(Cl)c3Cl)CC2)s1 = 3.1
C[C@H](CO)Nc1nc(SCc2cccc(F)c2F)nc2nc(NC3CC3)sc12 = 4.37
COCCC(NC(=O)C1(N)CCN(c2ncnc3[nH]ccc23)CC1)c1ccc(Cl)cc1 (stereo not given) = 2.95

Consider the following items and state reported logD for each.
1. CC(=O)Nc1cc(CN2C(=O)N(c3ccc(SC(F)(F)F)cc3)C(=O)C2(C)C)ccn1
2. O=C(c1ccc(OCCCc2cnc[nH]2)cc1)C1CC1 [CIPROXIFAN]
3. O=C(O)COc1ccc(Cl)cc1CN1CCC(S(=O)(=O)c2ccccc2)CC1
4. CCC(CC)NC(=O)c1c(C)nn(C(C)C)c1NS(=O)(=O)c1ccc(C)cc1
5. C=CCN(C(=O)Cc1ccc(S(C)(=O)=O)cc1)C1CCN(CCC(c2ccccc2)c2ccccc2)CC1
6. COc1c2occc2cc2ccc(=O)oc12 [METHOXSALEN]

1: 2.93; 2: 2.68; 3: 0.48; 4: 0.92; 5: 3.1; 6: 1.97
